Field: pIC50. Provide a value for each of the compounds that follow.
# Experimental system: Kallikrein-1 (Homo sapiens, UniProt P06870)
# Sequence (P06870 whole entry): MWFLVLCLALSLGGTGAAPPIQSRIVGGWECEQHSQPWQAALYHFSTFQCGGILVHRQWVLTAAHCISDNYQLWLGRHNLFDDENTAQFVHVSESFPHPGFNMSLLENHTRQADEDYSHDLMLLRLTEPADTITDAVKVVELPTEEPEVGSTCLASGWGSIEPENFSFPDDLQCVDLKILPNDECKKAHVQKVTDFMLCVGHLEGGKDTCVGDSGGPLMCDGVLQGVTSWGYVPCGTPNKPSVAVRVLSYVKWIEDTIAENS
# Experiment description: Inhibition of KLK1 (unknown origin)
pIC50: −log10 of the molar value.

Prompt: Annotate the compound COc1ccnc(CNC(=O)c2cn(Cc3ccc(Cn4ccccc4=O)cc3)nc2C(F)(F)F)c1F with its measured pIC50.
Completion: < 5.40

Prompt: Annotate the compound COCc1nn(Cc2ccc(Cn3cc(F)ccc3=O)cc2)cc1C(=O)NCc1nccc(OC)c1F with its measured pIC50.
Completion: < 4.40

Prompt: Annotate the compound Nc1nn(Cc2ccc(Cn3ccccc3=O)cc2)cc1C(=O)NCCOc1cccc(Cl)c1 with its measured pIC50.
Completion: 8.54
